assay_target: UniProt:O60341
With a cut-off of 5 µM, any IC50 strictly below it is called YES; any IC50 meeting it or above is called NO.

INPUT: Does the reported IC50 of O=c1c(O)c(-c2ccc(O)c(O)c2)oc2cc(O)cc(O)c12 [QUERCETIN] stay below 5 µM?
OUTPUT: YES

----------
assay_target: Lysine-specific histone demethylase 1A (Homo sapiens, UniProt O60341)
run_description: Inhibition of LSD1 (unknown origin)
# IC50 annotations
Return type: number; implicit unit µM.

Examples with answers:
* O=C(O)[C@H]1O[C@@H](Oc2cc3oc(-c4ccccc4)cc(=O)c3c(O)c2O)[C@H](O)[C@@H](O)[C@@H]1O | 3.55
* O=c1cc(-c2ccccc2)oc2cc(O)c(O)c(O)c12 | 12.5

Consider the additional compound presented here.
INPUT: Value lookup for IC50; key = COc1c(O[C@@H]2O[C@H](C(=O)O)[C@@H](O)[C@H](O)[C@H]2O)cc(O)c2c(=O)cc(-c3ccccc3)oc12
OUTPUT: 2.98

----------
assay_target: Lysine-specific histone demethylase 1A (Homo sapiens)
With a cut-off of 20 µM, any IC50 strictly below it is called Criterion met; any IC50 meeting it or above is called Criterion not met.

* COc1ccc([C@@H]2CC(=O)c3c(O)cc(O[C@@H]4O[C@H](CO[C@@H]5O[C@@H](C)[C@H](O)[C@@H](O)[C@H]5O)[C@@H](O)[C@H](O)[C@H]4O)cc3O2)cc1O | Criterion met

INPUT: Does the reported IC50 of COc1ccc([C@@H]2CC(=O)c3c(O)cc(O[C@@H]4O[C@H](CO)[C@@H](O)[C@H](O)[C@H]4O)cc3O2)cc1O stay below 20 µM?
OUTPUT: Criterion met

INPUT: Does the reported IC50 of COc1ccc(-c2oc3c(CC=C(C)C)c(O)cc(O)c3c(=O)c2O[C@@H]2O[C@@H](C)[C@H](O)[C@@H](O)[C@H]2O)cc1 stay below 20 µM?
OUTPUT: Criterion met

INPUT: Does the reported IC50 of O=c1c(O[C@@H]2O[C@H](CO)[C@@H](O)[C@H](O)[C@H]2O)c(-c2ccc(O)c(O)c2)oc2cc(O)cc(O)c12 stay below 20 µM?
OUTPUT: Criterion met

INPUT: Does the reported IC50 of COc1ccc([C@@H]2CC(=O)c3c(O)cc(O)cc3O2)cc1O stay below 20 µM?
OUTPUT: Criterion not met

INPUT: Does the reported IC50 of C[C@@H]1O[C@@H](OC[C@H]2O[C@@H](Oc3c(-c4ccc(O)c(O)c4)oc4cc(O)cc(O)c4c3=O)[C@H](O)[C@@H](O)[C@@H]2O)[C@H](O)[C@H](O)[C@H]1O stay below 20 µM?
OUTPUT: Criterion met

INPUT: Does the reported IC50 of COc1ccc(-c2oc3c(CC=C(C)C)c(O)cc(O)c3c(=O)c2O)cc1 stay below 20 µM?
OUTPUT: Criterion not met

INPUT: Does the reported IC50 of COc1ccc(-c2cc(=O)c3c(O)cc(O[C@@H]4O[C@H](CO)[C@@H](O)[C@H](O)[C@H]4O)cc3o2)cc1O stay below 20 µM?
OUTPUT: Criterion not met
